Target: histamine (H1) receptor (Cavia porcellus)
Construct: isolated smooth muscle of the guinea-pig ileum; from tissue; host or cells: isolated ileum segments of Dunkin Hartley guinea-pigs
Sequence (P31389 whole entry): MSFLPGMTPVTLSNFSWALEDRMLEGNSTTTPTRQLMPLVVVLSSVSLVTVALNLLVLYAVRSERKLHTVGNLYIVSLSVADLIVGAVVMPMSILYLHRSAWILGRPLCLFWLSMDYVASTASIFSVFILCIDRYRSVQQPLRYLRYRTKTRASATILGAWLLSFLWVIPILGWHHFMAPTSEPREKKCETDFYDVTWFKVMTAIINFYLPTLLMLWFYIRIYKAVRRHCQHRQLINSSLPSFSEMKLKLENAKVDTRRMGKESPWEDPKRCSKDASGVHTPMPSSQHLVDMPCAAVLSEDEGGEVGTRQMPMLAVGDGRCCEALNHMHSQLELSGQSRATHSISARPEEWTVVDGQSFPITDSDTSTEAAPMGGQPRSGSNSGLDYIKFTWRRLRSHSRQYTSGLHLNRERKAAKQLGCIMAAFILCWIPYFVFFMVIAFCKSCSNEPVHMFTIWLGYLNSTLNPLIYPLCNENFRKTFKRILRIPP
Experiment: Antihistamine (H1) effect: inhibition of histamine-induced contractions of isolated guinea-pig ileum in vitro
Format: cell-based, guinea-pig (Dunkin Hartley)
Details: histamine 5 × 10^-6 mol/l, test substance 10^-6 mol/l, after 10 min. (after washing); read-out: in vitro (H1) receptor antagonism % inhibitory effect on histamine-induced contractions of the Ileum, after 10 min.
READOUT: inhibition at 1 µM (%)
State the answer as a number, implicitly in %.

// known answers, use as guide
1) Cc1ccnc(N2CCN(CCc3c(C)n4c5c(cc(C(=O)c6ccccc6)cc35)CCC4)CC2)c1 :: 71
2) CC(C)=Cc1cc2c3c(c1)c(CCN1CCN(c4cc(C)ccn4)CC1)c(C)n3CCC2 :: 42
3) Cc1ccnc(N2CCN(CCc3c(C)n4c5c(cc(C(O)C(C)C)cc35)CCC4)CC2)c1 (stereo not drawn) :: 83
4) Cc1ccnc(N2CCN(CCc3c(C)n4c5c(ccc(Cl)c35)OCC4)CC2)c1 :: 78
5) Cc1ccc(N2CCN(CCc3c(C)n4c5c(cc(C(=O)C(C)C)cc35)CCC4)CC2)nc1 :: 71

Request: Given the entry "Cc1ccnc(N2CCN(CCc3c(C)n4c5c(cc(NC(=O)c6ccccc6)cc35)CCC4)CC2)c1" , report its measured inhibition at 1 µM.
Response: 77

Request: Given the entry "Cc1ccnc(N2CCN(CCc3cn4c5c(cccc35)CCC4)CC2)c1" , report its measured inhibition at 1 µM.
Response: 63

Request: Given the entry Cc1ccnc(N2CCN(CCc3c(C)n4c5c(cccc35)CCC4CO)CC2)c1 (stereo not drawn) , report its measured inhibition at 1 µM.
Response: 72

Request: Given the entry CCCCC1CCc2cc(C(=O)C(C)C)cc3c(CCN4CCN(c5cc(C)ccn5)CC4)c(C)n1c23 (stereo not drawn) , report its measured inhibition at 1 µM.
Response: 38

Request: Given the entry "Cc1ccnc(N2CCN(CCc3c(C)n4c5c(cc(CC(C)C)cc35)CCC4)CC2)c1" , report its measured inhibition at 1 µM.
Response: 56

Request: Given the entry Cc1ccnc(N2CCN(CCc3c(C)n4c5c(cccc35)CCC4c3ccccc3)CC2)c1 (stereo not drawn) , report its measured inhibition at 1 µM.
Response: 57
